Cited source: PubChem BioAssay (Tox21)

Test: qHTS assay to identify small molecule antagonists of the glucocorticoid receptor (GR) signaling pathway - cell viability counter screen (AID 720693); also: % is scaled to controls: 0 for no effect and ±100 for the full control effect; nearly all actives have a fitted effect of over 55% in size
Conditions: GR-bla HeLa viability, CellTiter-Glo luminescence, 18 h, with 5 nM dexamethasone present; series mostly up to 58.5 µM
Results filed as inconclusive are left out. Activity calls are given as the source filed them. Calls follow the shape of the dose curve; as a rule, active = well fitted cell-killing curve with a large enough effect in the repeat runs; inconclusive = weak or mixed curves, or effect the other way; inactive = no such curve, though single readings can be large or run the other way.
Output constraint: value belongs to active, inactive

Field: example entries. Status: answers known.
{"molecule": "CC(=O)O[C@@H]1C(=O)O[C@@H]2[C@H]1OC(=O)[C@@H]2OC(C)=O", "qualitative label": "inactive"}
{"molecule": "O=[N+]([O-])c1cc[n+]([O-])cc1", "qualitative label": "inactive"}
{"molecule": "OCCC1CCCCN1 (centres undefined)", "qualitative label": "inactive"}
{"molecule": "Cc1ccc(C(C)c2ccc(C)c(C)c2)cc1C", "qualitative label": "inactive"}
{"molecule": "O=C(C(=O)c1ccc(Br)cc1)c1ccc(Br)cc1", "qualitative label": "inactive"}
{"molecule": "O=CNc1ccccc1", "qualitative label": "inactive"}
{"molecule": "Cc1cc(NC(=O)C(=O)O)cc(C)c1Oc1ccc(O)c2c1CCC2", "qualitative label": "inactive"}
{"molecule": "O=C(O)/C=C/c1cnc[nH]1", "qualitative label": "inactive"}

query: Write down the call the test reported for this molecule. Item: CC(CN)CCCN (centres undefined)
result: inactive

query: Write down the call the test reported for this molecule. Item: CNCC[C@@H](Oc1ccccc1C)c1ccccc1
result: inactive

query: Write down the call the test reported for this molecule. Item: Oc1ccc(Cc2ccccc2)cc1
result: inactive

query: Write down the call the test reported for this molecule. Item: CC(=O)Nc1ccc(/C=N/NC(N)=S)cc1
result: inactive

query: Write down the call the test reported for this molecule. Item: Oc1ccc2c(c1)OCO2
result: inactive

* * *

Assay: qHTS assay to identify small molecule agonists of the hypoxia (HIF-1) signaling pathway - cell viability counter screen (AID 1224844); also: % is scaled to controls: 0 for no effect and ±100 for the full control effect; nearly all actives have a fitted effect of over 50% in size
Conditions: HRE-bla ME-180 viability, CellTiter-Glo luminescence, 17 h; series mostly up to 76.8 µM
Results filed as inconclusive are left out. Activity calls are given as the source filed them. Calls come from the whole dose curve.
value kind: activity change, negative = cytotoxicity

These solved cases illustrate the format of a correct answer.
{"molecule": "CCc1nn(C2CCCCC2)c2cc(C3(C#N)CCC(C(=O)O)CC3)ccc12 (stereo unspecified)", "observed result": "inactive"}
{"molecule": "c1ccc(CNCc2ccccc2)cc1", "observed result": "inactive"}
{"molecule": "O=C(CCN1CCN2CCCC2C1)N1c2ccccc2Sc2ccc(Cl)cc21 (stereo unspecified)", "observed result": "1.19% [at 15.8 µM] (inactive)"}
{"molecule": "Cc1cc(C)c(S(=O)(=O)O)cc1N=Nc1cc(S(=O)(=O)O)c2ccccc2c1O", "observed result": "inactive"}
{"molecule": "O=C(O)c1cn(C2CC2)c2cc(Cl)c(F)cc2c1=O", "observed result": "inactive"}

query: Look at this molecule and give its reported activity change, negative = cytotoxicity. CCCCOCCOCCOCCOCCO
result: inactive

* * *

Assay: Caspase-3/7 induction in HepG2 cells by small molecules, qHTS assay (AID 1346978); also: % is scaled to controls: 0 for no effect and ±100 for the full control effect; nearly all actives have a fitted effect of over 15% in size
Conditions: HepG2 caspase-3/7 activation, Caspase-Glo luminescence, 17 h; series mostly up to 92.4 µM
Results filed as inconclusive are left out. Active and inactive are the calls of the source. Calls come from the whole dose curve; as a rule, active = well fitted activation curve with a large enough effect in the repeat runs; inconclusive = weak or mixed curves; inactive = flat fitted curve, though single readings scatter.
value kind: caspase activation

{"compound": "CCCCCc1ccc(N)cc1", "caspase activation": "inactive"}
{"compound": "COc1ccc([C@@H]2Sc3ccccc3N(CCN(C)C)C(=O)[C@@H]2OC(C)=O)cc1", "caspase activation": "inactive"}
{"compound": "CCCCCCCCCC=O", "caspase activation": "inactive"}
{"compound": "O=C(CCN1CCN2CCCC2C1)N1c2ccccc2Sc2ccc(Cl)cc21 (configuration not stated)", "caspase activation": "1.09% [at 19 µM] (inactive)"}
{"compound": "CCN(CCO)CCCC(C)Nc1ccnc2cc(Cl)ccc12 (configuration not stated)", "caspase activation": "0.0326% [at 8.39 µM] (inactive)"}

query: Look at this compound and give its reported caspase activation. NC(N)=N/N=C/c1c(Cl)cccc1Cl
result: inactive

query: Look at this compound and give its reported caspase activation. CCN(CC)CCc1nc(-c2ccccc2)no1
result: inactive

* * *

Test: qHTS assay for small molecule agonists of the p53 signaling pathway (AID 651631); also: nearly all actives have a fitted effect of over 15% in size
Details: HCT-116 p53RE-bla reporter, beta-lactamase FRET ratio, 16 h; series mostly up to 73.3 µM
Results filed as inconclusive are left out. Active and inactive are the calls of the source. The call rests on the fitted dose curve.
Output constraint: value belongs to true for active, false for inactive

{"compound": "CCCCCCCCCC(=O)OCC", "qualitative label": "false"}
{"compound": "NCc1ccccc1", "qualitative label": "false"}
{"compound": "C1=Cc2ccccc2C1", "qualitative label": "false"}

query: Write down the call the test reported for this compound. Item: Cc1ccc(C)o1
result: false

query: Write down the call the test reported for this compound. Item: CCCC[C@H]1CN(CC2CCOCC2)C(=O)OC12CCN(C1(C)CCN(C(=O)c3c(C)ncnc3C)CC1)CC2
result: false

query: Write down the call the test reported for this compound. Item: CCN(CCO)CCCC(C)Nc1ccnc2cc(Cl)ccc12 (centres undefined)
result: false

query: Write down the call the test reported for this compound. Item: Cc1cc(CC(=O)O)c(C)n1-c1ccc(Cl)cc1
result: false

query: Write down the call the test reported for this compound. Item: CCCc1ccccc1
result: false

query: Write down the call the test reported for this compound. Item: CC(=O)N(O)CCCCCNC(=O)CCC(=O)N(O)CCCCCNC(=O)CCC(=O)N(O)CCCCCN
result: false

query: Write down the call the test reported for this compound. Item: CCOc1cc(OCC)c(C(=O)CCC(=O)O)cc1OCC
result: false

query: Write down the call the test reported for this compound. Item: O=c1[nH]cnc2ccccc12
result: false

query: Write down the call the test reported for this compound. Item: CCCOc1ccc2nc(NC(=O)OC)[nH]c2c1
result: true

query: Write down the call the test reported for this compound. Item: O=c1c2ccccc2nnn1CCl
result: false

query: Write down the call the test reported for this compound. Item: Cn1c(N)nc2nc[nH]c2c1=O
result: false

query: Write down the call the test reported for this compound. Item: c1ccc(CNCc2ccccc2)cc1
result: false

query: Write down the call the test reported for this compound. Item: CC1(C)[C@H]2CC[C@]1(C)[C@H](O)C2
result: false

query: Write down the call the test reported for this compound. Item: O=C(O)C1CCC(C(=O)O)CC1 (centres undefined)
result: false

query: Write down the call the test reported for this compound. Item: CC(=O)O[C@H]1C[C@@H]2CC[C@@H]3[C@H](CC[C@@]4(C)[C@H]3C[C@H]([N+]3(C)CCCCC3)[C@@H]4OC(C)=O)[C@@]2(C)C[C@@H]1N1CCCCC1
result: false

query: Write down the call the test reported for this compound. Item: O=C(c1ccc(O)cc1)c1ccc(O)cc1
result: false

query: Write down the call the test reported for this compound. Item: CCCCCCCCCCCCCCC1CO1 (centres undefined)
result: false

query: Write down the call the test reported for this compound. Item: C=CC[N+]1([C@H]2C[C@H]3[C@@H]4CC[C@H]5C[C@H](OC(C)=O)[C@@H](N6CCCCC6)C[C@]5(C)[C@H]4CC[C@]3(C)[C@H]2OC(=O)CC)CCCCC1
result: false

* * *

Biological target: Aromatase (Homo sapiens) (UniProt P11511)
Sequence (P11511 whole entry, looked up): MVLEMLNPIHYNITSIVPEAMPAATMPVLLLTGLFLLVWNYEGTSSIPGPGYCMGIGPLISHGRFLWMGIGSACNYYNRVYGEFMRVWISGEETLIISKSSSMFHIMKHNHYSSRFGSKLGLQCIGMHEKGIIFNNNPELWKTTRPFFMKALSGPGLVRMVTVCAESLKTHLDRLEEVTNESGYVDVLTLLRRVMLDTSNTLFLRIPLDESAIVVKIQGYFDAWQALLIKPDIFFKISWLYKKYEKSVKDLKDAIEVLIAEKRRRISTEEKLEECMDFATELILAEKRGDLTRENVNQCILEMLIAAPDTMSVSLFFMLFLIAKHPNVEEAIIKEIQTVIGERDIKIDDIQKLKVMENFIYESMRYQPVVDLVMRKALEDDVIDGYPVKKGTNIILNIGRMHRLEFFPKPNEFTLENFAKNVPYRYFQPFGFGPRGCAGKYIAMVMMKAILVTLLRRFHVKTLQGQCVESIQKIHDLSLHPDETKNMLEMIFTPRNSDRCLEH
Experiment: qHTS assay to identify aromatase inhibitors (AID 743083); also: % is scaled to controls: 0 for no effect and ±100 for the full control effect; nearly all actives have a fitted effect of over 55% in size
Conditions: MCF-7 aro ERE, testosterone-driven ERE luciferase, 24 h; series mostly up to 70.3 µM
Results filed as inconclusive are left out. Calls of active or inactive are those of the source. The call rests on the fitted dose curve; in most records, active means well fitted inhibition curve with a large enough effect in the repeat runs; inconclusive means weak or mixed curves; inactive means no such curve, though single readings can be large or run the other way.
value kind: outcome

{"compound": "CCOC(=O)C1=NN(c2ccccc2)C(=O)C1", "target or test system": "Aromatase (Homo sapiens) (UniProt P11511)", "outcome": "inactive"}
{"compound": "CC(=O)[C@@]1(O)CC[C@H]2[C@@H]3C[C@H](C)C4=CC(=O)CC[C@]4(C)[C@H]3CC[C@@]21C", "target or test system": "Aromatase (Homo sapiens) (UniProt P11511)", "outcome": "inactive"}
{"compound": "COc1ccc2[nH]c(S(=O)Cc3ncc(C)c(OC)c3C)nc2n1 (stereo unspecified)", "target or test system": "Aromatase (Homo sapiens) (UniProt P11511)", "outcome": "inactive"}
{"compound": "CCOc1cc(OCC)c(C(=O)CCC(=O)O)cc1OCC", "target or test system": "Aromatase (Homo sapiens) (UniProt P11511)", "outcome": "inactive"}
{"compound": "CCN1CCC[C@H]1CNC(=O)c1c(OC)ccc(Br)c1OC", "target or test system": "Aromatase (Homo sapiens) (UniProt P11511)", "outcome": "inactive"}

query: Look at this compound and give its reported outcome. Cc1cccc(C(C)(C)C)c1O
result: inactive

* * *

Target: Aryl hydrocarbon receptor (Homo sapiens) (UniProt P35869)
Sequence (P35869 whole entry, looked up): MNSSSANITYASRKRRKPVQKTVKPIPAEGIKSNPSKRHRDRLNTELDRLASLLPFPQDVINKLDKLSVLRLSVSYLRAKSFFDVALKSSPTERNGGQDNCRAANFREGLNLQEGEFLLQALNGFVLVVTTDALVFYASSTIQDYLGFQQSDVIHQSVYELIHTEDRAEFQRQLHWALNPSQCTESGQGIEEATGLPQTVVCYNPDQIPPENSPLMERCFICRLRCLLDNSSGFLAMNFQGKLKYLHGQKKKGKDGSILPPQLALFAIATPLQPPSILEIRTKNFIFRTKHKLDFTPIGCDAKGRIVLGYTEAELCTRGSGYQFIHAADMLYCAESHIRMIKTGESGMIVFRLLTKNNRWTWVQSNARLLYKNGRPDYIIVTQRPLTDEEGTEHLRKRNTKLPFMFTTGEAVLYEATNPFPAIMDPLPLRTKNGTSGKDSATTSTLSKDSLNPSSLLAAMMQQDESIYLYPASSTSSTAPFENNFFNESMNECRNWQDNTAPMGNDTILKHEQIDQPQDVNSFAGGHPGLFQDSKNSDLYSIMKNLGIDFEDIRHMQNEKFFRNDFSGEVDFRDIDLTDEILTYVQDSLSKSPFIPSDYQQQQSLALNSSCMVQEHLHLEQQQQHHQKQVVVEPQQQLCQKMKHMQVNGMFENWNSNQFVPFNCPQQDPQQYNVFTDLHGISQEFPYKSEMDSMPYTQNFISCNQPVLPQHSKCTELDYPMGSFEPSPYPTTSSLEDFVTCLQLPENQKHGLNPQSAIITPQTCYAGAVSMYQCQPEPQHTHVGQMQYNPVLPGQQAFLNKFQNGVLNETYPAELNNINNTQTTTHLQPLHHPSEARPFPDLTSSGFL
Assay: qHTS assay to identify small molecule that activate the aryl hydrocarbon receptor (AhR) signaling pathway (AID 743085); also: nearly all actives have a fitted effect of over 15% in size;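 as to activation: HG2L7.5c1 human HepG2 liver cells with stably integrated DRE-driven firefly reporter; % is scaled to controls: 0 for no effect and ±100 for the full control effect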
Conditions: HepG2 AhR-luc (HG2L7.5c1), luciferase, 24 h; series mostly up to 70.3 µM
Results filed as inconclusive are left out. The source made the active and inactive calls. The call rests on the fitted dose curve; in most records, active means well fitted activation curve with a large enough effect in the repeat runs; inconclusive means weak or mixed curves; inactive means no such curve, though single readings can be large or run the other way.
Output constraint: value belongs to Yes (active), No (inactive)

Field: example entries. Status: answers known.
{"compound": "CCCCCCCCCCCCCCCCCBr", "target or test system": "Aryl hydrocarbon receptor (Homo sapiens) (UniProt P35869)", "qualitative label": "No"}
{"compound": "Cc1nc2ccccc2n1Cc1ccc(Cl)cc1", "target or test system": "Aryl hydrocarbon receptor (Homo sapiens) (UniProt P35869)", "qualitative label": "No"}
{"compound": "CC(Cc1cccc(C(F)(F)F)c1)NCCOC(=O)c1ccccc1 (stereo not drawn)", "target or test system": "Aryl hydrocarbon receptor (Homo sapiens) (UniProt P35869)", "qualitative label": "No"}
{"compound": "COCCOCCOCCOCCOC", "target or test system": "Aryl hydrocarbon receptor (Homo sapiens) (UniProt P35869)", "qualitative label": "No"}
{"compound": "Oc1ccc(O)c2c(O)cccc12", "target or test system": "Aryl hydrocarbon receptor (Homo sapiens) (UniProt P35869)", "qualitative label": "Yes"}

Please turn your attention to the following entry.
query: Write down the call the test reported for this compound. Item: C=CCCCCCC
result: No
